All values here come from paper PMC10425210.

- run_description: Plasma pharmacokinetics after a single subcutaneous administration of LEN
- Format: in vivo, rhesus macaques
- experimental_setup: male, Indian-origin (outbred), rhesus monkey, plasma, subcutaneous, 50 mg/kg, Plasma LEN, animal V430, 50 mg/kg, week 17 post challenge
readout_label: concentration at 17 weeks post challenge (nM)
I only need the number, in nM, no unit after it.

*Q* Name the reported concentration at 17 weeks post challenge value associated with the compound "CC(C)(C#Cc1ccc(-c2ccc(Cl)c3c(NS(C)(=O)=O)nn(CC(F)(F)F)c23)c([C@H](Cc2cc(F)cc(F)c2)NC(=O)Cn2nc(C(F)(F)F)c3c2C(F)(F)[C@@H]2C[C@H]32)n1)S(C)(=O)=O"
*A* 1

###

- run_description: Plasma pharmacokinetics after a single subcutaneous administration of LEN
- Assay type: in vivo, rhesus macaques
- experimental_setup: male, Indian-origin (outbred), rhesus monkey, plasma, subcutaneous, 75 mg/kg, Plasma LEN, animal V435, 75 mg/kg, week 3 post challenge
readout_label: concentration at 3 weeks post challenge (nM)
Give just the number in nM; leave the unit off.

*Q* Name the reported concentration at 3 weeks post challenge value associated with the compound CC(C)(C#Cc1ccc(-c2ccc(Cl)c3c(NS(C)(=O)=O)nn(CC(F)(F)F)c23)c([C@H](Cc2cc(F)cc(F)c2)NC(=O)Cn2nc(C(F)(F)F)c3c2C(F)(F)[C@@H]2C[C@H]32)n1)S(C)(=O)=O [LEN, Lenacapavir]
*A* 14.8

###

- run_description: Plasma pharmacokinetics after a single subcutaneous administration of LEN
- Type: in vivo, rhesus macaques
- experimental_setup: male, Indian-origin (outbred), rhesus monkey, plasma, subcutaneous, 75 mg/kg, Plasma LEN, animal V426, 75 mg/kg, week 4 post challenge
readout_label: concentration at 4 weeks post challenge (nM)
The answer is to be given in nM; state only the numeric part.

*Q* I'd like to know its concentration at 4 weeks post challenge. The compound in question is "CC(C)(C#Cc1ccc(-c2ccc(Cl)c3c(NS(C)(=O)=O)nn(CC(F)(F)F)c23)c([C@H](Cc2cc(F)cc(F)c2)NC(=O)Cn2nc(C(F)(F)F)c3c2C(F)(F)[C@@H]2C[C@H]32)n1)S(C)(=O)=O"
*A* 117

###

- run_description: Plasma pharmacokinetics after a single subcutaneous administration of LEN
- Format: in vivo, rhesus macaques
- experimental_setup: male, Indian-origin (outbred), rhesus monkey, plasma, subcutaneous, 75 mg/kg, Plasma LEN, animal V417, 75 mg/kg, week 3 post challenge
readout_label: concentration at 3 weeks post challenge (nM)
Express it in nM; write the number only.

*Q* Fill in: concentration at 3 weeks post challenge of "CC(C)(C#Cc1ccc(-c2ccc(Cl)c3c(NS(C)(=O)=O)nn(CC(F)(F)F)c23)c([C@H](Cc2cc(F)cc(F)c2)NC(=O)Cn2nc(C(F)(F)F)c3c2C(F)(F)[C@@H]2C[C@H]32)n1)S(C)(=O)=O" is ___
*A* 88.5

###

- run_description: Plasma pharmacokinetics after a single subcutaneous administration of LEN
- Type: in vivo, rhesus macaques
- experimental_setup: male, Indian-origin (outbred), rhesus monkey, plasma, subcutaneous, 5 mg/kg, Plasma LEN (Mean), 5 mg/kg sc, week 9 post dose
readout_label: concentration at 9 week

*Q* Recorded concentration at 9 week of "CC(C)(C#Cc1ccc(-c2ccc(Cl)c3c(NS(C)(=O)=O)nn(CC(F)(F)F)c23)c([C@H](Cc2cc(F)cc(F)c2)NC(=O)Cn2nc(C(F)(F)F)c3c2C(F)(F)[C@@H]2C[C@H]32)n1)S(C)(=O)=O" , please.
*A* 5.79 nM

###

- run_description: Plasma pharmacokinetics after a single subcutaneous administration of LEN
- Format: in vivo, rhesus macaques
- experimental_setup: male, Indian-origin (outbred), rhesus monkey, plasma, subcutaneous, 50 mg/kg, Plasma LEN, animal CO92, 50 mg/kg, week 17 post challenge
readout_label: concentration at 17 weeks post challenge (nM)
Express your answer in nM, writing the number without its unit.

*Q* Given "CC(C)(C#Cc1ccc(-c2ccc(Cl)c3c(NS(C)(=O)=O)nn(CC(F)(F)F)c23)c([C@H](Cc2cc(F)cc(F)c2)NC(=O)Cn2nc(C(F)(F)F)c3c2C(F)(F)[C@@H]2C[C@H]32)n1)S(C)(=O)=O" , state its recorded concentration at 17 weeks post challenge.
*A* 13.6

###

- run_description: Plasma pharmacokinetics after a single subcutaneous administration of LEN
- Type: in vivo, rhesus macaques
- experimental_setup: male, Indian-origin, outbred, rhesus monkey, plasma, subcutaneous, 10 mg/kg, Plasma LEN (Mean), 10 mg/kg sc, week 0.14 post dose
readout_label: concentration at 0.14 week (µM)
Answer with a number only, understood to be in µM.

*Q* Entry "CC(C)(C#Cc1ccc(-c2ccc(Cl)c3c(NS(C)(=O)=O)nn(CC(F)(F)F)c23)c([C@H](Cc2cc(F)cc(F)c2)NC(=O)Cn2nc(C(F)(F)F)c3c2C(F)(F)[C@@H]2C[C@H]32)n1)S(C)(=O)=O" : reported concentration at 0.14 week = ?
*A* 0.0199

###

- run_description: Plasma pharmacokinetics after a single subcutaneous administration of LEN
- Type: in vivo, rhesus macaques
- experimental_setup: male, Indian-origin, outbred, rhesus monkey, plasma, subcutaneous, 75 mg/kg, Plasma LEN (Mean), 75 mg/kg sc, week 20 post dose
readout_label: concentration at 20 week (nM)
Unit nM implied. Number only.

*Q* Find the recorded concentration at 20 week belonging to "CC(C)(C#Cc1ccc(-c2ccc(Cl)c3c(NS(C)(=O)=O)nn(CC(F)(F)F)c23)c([C@H](Cc2cc(F)cc(F)c2)NC(=O)Cn2nc(C(F)(F)F)c3c2C(F)(F)[C@@H]2C[C@H]32)n1)S(C)(=O)=O" and report it.
*A* 16.6

###

- run_description: Plasma pharmacokinetics after a single subcutaneous administration of LEN
- Format: in vivo, rhesus macaques
- experimental_setup: male, Indian-origin (outbred), rhesus monkey, plasma, subcutaneous, 75 mg/kg, Plasma LEN, animal V417, 75 mg/kg, week 0 post challenge
readout_label: concentration at 0 weeks post challenge (nM)
Form entry: value (nM) — number only.

*Q* I'd like to know its concentration at 0 weeks post challenge. The molecule in question is CC(C)(C#Cc1ccc(-c2ccc(Cl)c3c(NS(C)(=O)=O)nn(CC(F)(F)F)c23)c([C@H](Cc2cc(F)cc(F)c2)NC(=O)Cn2nc(C(F)(F)F)c3c2C(F)(F)[C@@H]2C[C@H]32)n1)S(C)(=O)=O [LEN, Lenacapavir]
*A* 158

###

- run_description: Plasma pharmacokinetics after a single subcutaneous administration of LEN
- Type: in vivo, rhesus macaques
- experimental_setup: male, Indian-origin, outbred, rhesus monkey, plasma, subcutaneous, 75 mg/kg, Plasma LEN (Mean), 75 mg/kg sc, week 0.43 post dose
readout_label: concentration at 0.43 week (nM)
I only need the number, in nM, no unit after it.

*Q* For "CC(C)(C#Cc1ccc(-c2ccc(Cl)c3c(NS(C)(=O)=O)nn(CC(F)(F)F)c23)c([C@H](Cc2cc(F)cc(F)c2)NC(=O)Cn2nc(C(F)(F)F)c3c2C(F)(F)[C@@H]2C[C@H]32)n1)S(C)(=O)=O" , what is its reported concentration at 0.43 week?
*A* 223

###

- run_description: Plasma pharmacokinetics after a single subcutaneous administration of LEN
- Type: in vivo, rhesus macaques
- experimental_setup: male, Indian-origin (outbred), rhesus monkey, plasma, subcutaneous, 75 mg/kg, Plasma LEN, animal CP67, 75 mg/kg, week 3 post challenge
readout_label: concentration at 3 weeks post challenge (nM)
Dear colleague, please return just the value in nM, with no unit written.

*Q* Suppose we examine the compound "CC(C)(C#Cc1ccc(-c2ccc(Cl)c3c(NS(C)(=O)=O)nn(CC(F)(F)F)c23)c([C@H](Cc2cc(F)cc(F)c2)NC(=O)Cn2nc(C(F)(F)F)c3c2C(F)(F)[C@@H]2C[C@H]32)n1)S(C)(=O)=O" ; what concentration at 3 weeks post challenge value has been reported?
*A* 144

###

- run_description: Plasma pharmacokinetics after a single subcutaneous administration of LEN
- Type: in vivo, rhesus macaques
- experimental_setup: male, Indian-origin (outbred), rhesus monkey, plasma, subcutaneous, 75 mg/kg, Plasma LEN (Mean), 75 mg/kg sc, week 14 post dose
readout_label: concentration at 14 week (nM)
Numeric answer only, unit nM assumed.

*Q* Requested read-out: concentration at 14 week. Entry: "CC(C)(C#Cc1ccc(-c2ccc(Cl)c3c(NS(C)(=O)=O)nn(CC(F)(F)F)c23)c([C@H](Cc2cc(F)cc(F)c2)NC(=O)Cn2nc(C(F)(F)F)c3c2C(F)(F)[C@@H]2C[C@H]32)n1)S(C)(=O)=O"
*A* 37.9

###

- run_description: Plasma pharmacokinetics after a single subcutaneous administration of LEN
- Type: in vivo, rhesus macaques
- experimental_setup: male, Indian-origin, outbred, rhesus monkey, plasma, subcutaneous, 75 mg/kg, Plasma LEN (Mean), 75 mg/kg sc, week 2 post dose
readout_label: concentration at 2 week (nM)
// note: answer is a bare numeric in nM

*Q* Item "CC(C)(C#Cc1ccc(-c2ccc(Cl)c3c(NS(C)(=O)=O)nn(CC(F)(F)F)c23)c([C@H](Cc2cc(F)cc(F)c2)NC(=O)Cn2nc(C(F)(F)F)c3c2C(F)(F)[C@@H]2C[C@H]32)n1)S(C)(=O)=O" has what recorded concentration at 2 week?
*A* 213
